# experimental_target: T1, human TIGIT-Fc (human, UniProt Q495A1 22-141, limits assumed)
# T1 construct: not shown: Fc; not described
# T1 sequence (looked up): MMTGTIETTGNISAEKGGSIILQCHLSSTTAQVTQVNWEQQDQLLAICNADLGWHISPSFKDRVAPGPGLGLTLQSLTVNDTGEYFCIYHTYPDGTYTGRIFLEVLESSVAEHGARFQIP
# experiment: CD155 competition ELISA, single point; also: test concentration or dose not given here
observation_type: OD (450 nm) (OD)
Give a bare numeral; the unit OD is implied.

Give recorded OD (450 nm). TIGIT-SC72 (Fc fusion, VHH-Fc) VHH: EVQLVESGGGLVQPGGSLRLSCAASGGLTFSSYAMGWFRQAPGKEREFVAAISWSGGRTYYADSVKGRFTISADNSKNTAYLQMNSLKPEDTAVYYCARWSAKRHSDTMTYYMDVWGQGTLVTVSS
0.394

Give recorded OD (450 nm). TIGIT-SC160 (Fc fusion, VHH-Fc) VHH: EVQLVESGGGLVQPGGSLRLSCAASGNTFSGGFMGWFRQAPGKEREWVASVLRGGYTWYADSVKGRFTISADNSKNTAYLQMNSLKPEDTAVYYCAREGRSSSPWFDPWGQGTLVTVSS
0.467

Give recorded OD (450 nm). TIGIT-SC175 (Fc fusion, VHH-Fc) VHH: EVQLVESGGGLVQPGGSLRLSCAASGNTFSGGFMGWFRQAPGKEREWVASVLRGGYTWYADSVKGRFTISADNSKNTAYLQMNSLKPEDTAVYYCTTDALRFLEWPWWGQGTLVTVSS
0.59

Give recorded OD (450 nm). TIGIT-SC24 (Fc fusion, VHH-Fc) VHH: EVQLVESGGGLVQPGGSLRLSCAASGFTFDRSWMGWFRQAPGKEREVVASITSGGSTYYADSVKGRFTISADNSKNTAYLQMNSLKPEDTAVYYCAADVWYGSTWRNWGQGTLVTVSS
0.0781
